# System: TGBC11TKB (Gastric Carcinoma)
# Test: combination Emax (second highest fraction inhibited in the dose matrix, 72 h); higher = more inhibition; extreme values may be limits of the assay
Metric Name: combination Emax
Numbers only.

Illustrative cases are given below, each with its answer.
CN(CCO)CC[C@H](CSc1ccccc1)Nc1ccc(S(=O)(=O)NC(=O)c2ccc(N3CCC([C@@H](O)c4ccccc4-c4ccc(Cl)cc4)CC3)cc2)cc1S(=O)(=O)C(F)(F)F [AZD4320] + Cc1cc2ncnn2cc1Nc1ncc2c(n1)n(C1CCOCC1)c(=O)n2C [AZD7648] (first compound max 1 µM, 7x7, partner max 10 µM) : 0.237
C[C@@H]1COCCN1c1cc(C2([S@](C)(=N)=O)CC2)nc(-c2ccnc3[nH]ccc23)n1 [AZD6738] + O=C(c1cc(Cc2n[nH]c(=O)c3ccccc23)ccc1F)N1CCN(C(=O)C2CC2)CC1 [Olaparib] (first compound max 10 µM, 7x7, partner max 10 µM) : 0.796

Now take the following molecule into account.
Query string: Bench note: what combination Emax did CC1(C)CCC(CN2CCN(c3ccc(C(=O)NS(=O)(=O)c4ccc(NCC5CCOCC5)c([N+](=O)[O-])c4)c(Oc4cnc5[nH]ccc5c4)c3)CC2)=C(c2ccc(Cl)cc2)C1 [Venetoclax] + C[C@@H](Nc1cc(F)cc(F)c1)c1cc(C(=O)N(C)C)cc2c(=O)cc(N3CCOCC3)oc12 [AZD8186] (first compound max 1 µM, 7x7, partner max 3 µM) show?
Result string: 0.203

###

Exercise: for every item that follows, state its recorded Bliss excess.
# Tested on: KU-19-19 (Bladder Carcinoma)
# Test: Bliss excess, mean over the matrix (fraction); higher = more synergy
One number for each entry.

Cc1c2c(nn1C)CSCc1cc(n(C)n1)CSc1cc(c3ccccc3c1)OCCCc1c(C(=O)O)n(C)c3c-2c(Cl)ccc13 [AZD5991] + C[C@@H](Nc1cc(F)cc(F)c1)c1cc(C(=O)N(C)C)cc2c(=O)cc(N3CCOCC3)oc12 [AZD8186] (first compound max 1 µM, 7x7, partner max 3 µM) : 0.0033

Now take the following compound into account.
Query string: Bench note: what Bliss excess did CS(=O)(=O)CCNCc1ccc(-c2ccc3ncnc(Nc4ccc(OCc5cccc(F)c5)c(Cl)c4)c3c2)o1 [Lapatinib] + C[C@@H](Oc1cc(-c2cnn(C3CCNCC3)c2)cnc1N)c1c(Cl)ccc(F)c1Cl [Crizotinib] (first compound max 10 µM, 7x7, partner max 10 µM) show?
Result string: -0.034

###

# System: TGBC11TKB (Gastric Carcinoma)
# Test: combination Emax (second highest fraction inhibited in the dose matrix, 72 h); higher = more inhibition; extreme values may be limits of the assay
Metric Name: combination Emax
Numbers only.

Cc1c2c(nn1C)CSCc1cc(n(C)n1)CSc1cc(c3ccccc3c1)OCCCc1c(C(=O)O)n(C)c3c-2c(Cl)ccc13 [AZD5991] + C=CCn1c(=O)c2cnc(Nc3ccc(N4CCN(C)CC4)cc3)nc2n1-c1cccc(C(C)(C)O)n1 [AZD1775] (first compound max 1 µM, partner max 1 µM) : 0.922

Now take the following compound into account.
Query string: Bench note: what combination Emax did CN(C)CCCOc1ccc(-c2ccc3ncc4c(c3c2)n(C2CCOCC2)c(=O)n4C)cn1 [AZD0156] + C=CCn1c(=O)c2cnc(Nc3ccc(N4CCN(C)CC4)cc3)nc2n1-c1cccc(C(C)(C)O)n1 [AZD1775] (first compound max 1 µM, partner max 1 µM) show?
Result string: 0.895

###

# System: EW-18 (Ewing's Sarcoma)
# Test: combination Emax (second highest fraction inhibited in the dose matrix, 72 h); higher = more inhibition; extreme values may be limits of the assay
Metric Name: combination Emax
One number for each entry.

Need combination Emax for each of these molecules.
1. COc1nnc2ccc(N3CCC(c4ccc(OCCN5CCN(C)C(=O)[C@H]5C)cc4)CC3)nn12 [AZD5153] + CN(CC[C@H](CSC1=CC=CC=C1)NC2=C(C=C(C=C2)S(=O)(=O)NC(=O)C3=CC=C(C=C3)N4CCC(CC4)[C@H](C5=CC=CC=C5C6=CC=C(C=C6)Cl)O)S(=O)(=O)C(F)(F)F)CCO [AZD4320] (first compound max 1 µM, 7x7, partner max 1 µM)
2. C[C@@H]1COCCN1c1cc(C2([S@](C)(=N)=O)CC2)nc(-c2ccnc3[nH]ccc23)n1 [AZD6738] + O=C(c1cc(Cc2n[nH]c(=O)c3ccccc23)ccc1F)N1CCN(C(=O)C2CC2)CC1 [Olaparib] (first compound max 10 µM, 7x7, partner max 10 µM)

Result string:
0.929
0.666

###

# Test system: U-87-MG (Glioblastoma)
# Test: combination Emax (second highest fraction inhibited in the dose matrix, 72 h); higher = more inhibition; extreme values may be limits of the assay
Exercise: for every item that follows, state its recorded combination Emax.

Illustrative cases are given below, each with its answer.
CC1(C)CCC(CN2CCN(c3ccc(C(=O)NS(=O)(=O)c4ccc(NCC5CCOCC5)c([N+](=O)[O-])c4)c(Oc4cnc5[nH]ccc5c4)c3)CC2)=C(c2ccc(Cl)cc2)C1 [Venetoclax] + CN(C)CCCOc1ccc(-c2ccc3ncc4c(c3c2)n(C2CCOCC2)c(=O)n4C)cn1 [AZD0156] (first compound max 1 µM, 7x7, partner max 1 µM) : 0.203
CN(CCO)CC[C@H](CSc1ccccc1)Nc1ccc(S(=O)(=O)NC(=O)c2ccc(N3CCC([C@@H](O)c4ccccc4-c4ccc(Cl)cc4)CC3)cc2)cc1S(=O)(=O)C(F)(F)F [AZD4320] + CN(C)CCCOc1ccc(-c2ccc3ncc4c(c3c2)n(C2CCOCC2)c(=O)n4C)cn1 [AZD0156] (first compound max 1 µM, 7x7, partner max 1 µM) : 0.165

Query string: Bench note: what combination Emax did C[C@@H](c1ccc2nccn2c1)n1nnc2ncc(-c3cnn(C)c3)nc21 [Savolitinib] + Cc1c2c(nn1C)CSCc1cc(n(C)n1)CSc1cc(c3ccccc3c1)OCCCc1c(C(=O)O)n(C)c3c-2c(Cl)ccc13 [AZD5991] (first compound max 1 µM, 7x7, partner max 1 µM) show?
Result string: 0.288

###

# System: GOTO (Neuroblastoma)
# Test: Bliss excess, mean over the matrix (fraction); higher = more synergy
Exercise: for every item that follows, state its recorded Bliss excess.
Give bare numbers.

Cn1cnc2c(F)c(Nc3ccc(Br)cc3Cl)c(C(=O)NOCCO)cc21 [Selumetinib] + C[C@@H]1COCCN1C2=NC(=NC(=C2)C3(CC3)[S@](=N)(=O)C)C4=C5C=CNC5=NC=C4 [AZD6738] (first compound max 10 µM, 7x7, partner max 10 µM) : 0.0043
CC1(C)CCC(CN2CCN(c3ccc(C(=O)NS(=O)(=O)c4ccc(NCC5CCOCC5)c([N+](=O)[O-])c4)c(Oc4cnc5[nH]ccc5c4)c3)CC2)=C(c2ccc(Cl)cc2)C1 [Venetoclax] + C=CCn1c(=O)c2cnc(Nc3ccc(N4CCN(C)CC4)cc3)nc2n1-c1cccc(C(C)(C)O)n1 [AZD1775] (first compound max 1 µM, partner max 1 µM) : 0.0047
CN(C)CCCOc1ccc(-c2ccc3ncc4c(c3c2)n(C2CCOCC2)c(=O)n4C)cn1 [AZD0156] + C[C@@H]1COCCN1C2=NC(=NC(=C2)C3(CC3)[S@](=N)(=O)C)C4=C5C=CNC5=NC=C4 [AZD6738] (first compound max 1 µM, 7x7, partner max 10 µM) : -0.0394

Now take the following molecule into account.
Query string: Bench note: what Bliss excess did Cn1cnc2c(F)c(Nc3ccc(Br)cc3Cl)c(C(=O)NOCCO)cc21 [Selumetinib] + CCN(CCO)CCCOc1ccc2c(Nc3cc(CC(=O)Nc4cccc(F)c4)[nH]n3)ncnc2c1 [AZD2811] (first compound max 10 µM, 7x7, partner max 1 µM) show?
Result string: -0.0175

###

# Tested on: GI-1 (Glioblastoma)
# Test: combination Emax (second highest fraction inhibited in the dose matrix, 72 h); higher = more inhibition; extreme values may be limits of the assay
Give y when the value for combination Emax is at least 0.9. Give n when it is less.

See these solved cases before continuing.
COc1cccc(OCCCN)c1-c1cc(Nc2cnc(C#N)cn2)n[nH]1 [Prexasertib] + Cc1cc2ncnn2cc1Nc1ncc2c(n1)n(C1CCOCC1)c(=O)n2C [AZD7648] (first compound max 1 µM, 7x7, partner max 10 µM) : y
COc1nnc2ccc(N3CCC(c4ccc(OCCN5CCN(C)C(=O)[C@H]5C)cc4)CC3)nn12 [AZD5153] + C[C@@H]1COCCN1C2=NC(=NC(=C2)C3(CC3)[S@](=N)(=O)C)C4=C5C=CNC5=NC=C4 [AZD6738] (first compound max 1 µM, 7x7, partner max 10 µM) : y
COc1nnc2ccc(N3CCC(c4ccc(OCCN5CCN(C)C(=O)[C@H]5C)cc4)CC3)nn12 [AZD5153] + CC1(C)CCC(CN2CCN(c3ccc(C(=O)NS(=O)(=O)c4ccc(NCC5CCOCC5)c([N+](=O)[O-])c4)c(Oc4cnc5[nH]ccc5c4)c3)CC2)=C(c2ccc(Cl)cc2)C1 [Venetoclax] (first compound max 1 µM, 7x7, partner max 1 µM) : n
COc1cccc(OCCCN)c1-c1cc(Nc2cnc(C#N)cn2)n[nH]1 [Prexasertib] + C[C@@H]1COCCN1C2=NC(=NC(=C2)C3(CC3)[S@](=N)(=O)C)C4=C5C=CNC5=NC=C4 [AZD6738] (first compound max 1 µM, 7x7, partner max 10 µM) : y

# ---- query compound ----
Query string: Given CC(=O)Nc1cccc(-n2c(=O)n(C3CC3)c(=O)c3c(Nc4ccc(I)cc4F)n(C)c(=O)c(C)c32)c1 [Trametinib] + Cc1nc(-c2cn3c(n2)-c2ccc(-c4cnn(C(C)(C)C(N)=O)c4)cc2OCC3)n(C(C)C)n1 [Taselisib] (first compound max 1 µM, 7x7, partner max 10 µM) , state whether its combination Emax is at least 0.9.
Result string: n
